# ASSAY OVERVIEW: refractive index (Na D-line) (dimensionless)
# SETUP CONDITIONS: 333.15 K; 101.33 kPa; Liquid; Standard Abbe refractometry
Each record here notes measured refractive index.

| COMPOUND | refractive index |
| --- | --- |
| CCCCCCCCCCCCOS(=O)(=O)[O-].CCCCCCCCCCn1cc[n+](CCC#N)c1 [3-(2-cyanoethyl)-1-decylimidazolium dodecylsulfate] | 1.46391 |
| CCCCCCCCCCCCOS(=O)(=O)[O-].CCCCn1cc[n+](CCC#N)c1 [1-butyl-3-(2-cyanoethyl)-1H-imidazol-3-ium dodecyl sulfate] | 1.47487 |
| CCCCn1cc[n+](CCC#N)c1.O=S(=O)([O-])c1ccccc1 [1-butyl-3-(2-cyanoethyl)-1H-imidazolium benzenesulfonate] | 1.52403 |
| CCCCCCCCCCn1cc[n+](CCC#N)c1.O=C([O-])c1cccc(S(=O)(=O)O)c1 [3-(2-cyanoethyl)-1-decylimidazolium 3-sulfobenzoate] | 1.50322 |

----------
# SETUP CONDITIONS: 343.15 K; 101.33 kPa; Liquid; Vibrating tube method

| COMPOUND | mass density [kg/m3] |
| --- | --- |
| CCCCCCCCCCCCOS(=O)(=O)[O-].CCCCCCCCCCn1cc[n+](CCC#N)c1 [3-(2-cyanoethyl)-1-decylimidazolium dodecylsulfate] | 1027.3 |
| CCCCCCCCCCCCOS(=O)(=O)[O-].CCCCn1cc[n+](CCC#N)c1 [1-butyl-3-(2-cyanoethyl)-1H-imidazol-3-ium dodecyl sulfate] | 1089.7 |
| CCCCCCCCCCn1cc[n+](CCC#N)c1.O=C([O-])c1cccc(S(=O)(=O)O)c1 [3-(2-cyanoethyl)-1-decylimidazolium 3-sulfobenzoate] | 1102.6 |
| CCCCn1cc[n+](CCC#N)c1.O=S(=O)([O-])c1ccccc1 [1-butyl-3-(2-cyanoethyl)-1H-imidazolium benzenesulfonate] | 1207.1 |

----------
# SETUP CONDITIONS: 303.15 K; 101.33 kPa; Liquid; Vibrating tube method
MEASURED ENDPOINT: mass density (kg/m3)

| COMPOUND | MEASURED ENDPOINT | VALUE MEASURED |
| --- | --- | --- |
| CCCCCCCCCCCCOS(=O)(=O)[O-].CCCCCCCCCCn1cc[n+](CCC#N)c1 [3-(2-cyanoethyl)-1-decylimidazolium dodecylsulfate] | mass density | 1046.9 |
| CCCCCCCCCCCCOS(=O)(=O)[O-].CCCCn1cc[n+](CCC#N)c1 [1-butyl-3-(2-cyanoethyl)-1H-imidazol-3-ium dodecyl sulfate] | mass density | 1119.8 |
| CCCCCCCCCCn1cc[n+](CCC#N)c1.O=C([O-])c1cccc(S(=O)(=O)O)c1 [3-(2-cyanoethyl)-1-decylimidazolium 3-sulfobenzoate] | mass density | 1129.9 |
| CCCCn1cc[n+](CCC#N)c1.O=S(=O)([O-])c1ccccc1 [1-butyl-3-(2-cyanoethyl)-1H-imidazolium benzenesulfonate] | mass density | 1233.4 |

----------
# SETUP CONDITIONS: 298.15 K; 101.33 kPa; Liquid; Vibrating tube method

| COMPOUND | mass density [kg/m3] |
| --- | --- |
| CCCCn1cc[n+](CCC#N)c1.O=S(=O)([O-])c1ccccc1 [1-butyl-3-(2-cyanoethyl)-1H-imidazolium benzenesulfonate] | 1236.8 |
| CCCCCCCCCCCCOS(=O)(=O)[O-].CCCCCCCCCCn1cc[n+](CCC#N)c1 [3-(2-cyanoethyl)-1-decylimidazolium dodecylsulfate] | 1050.4 |
| CCCCCCCCCCCCOS(=O)(=O)[O-].CCCCn1cc[n+](CCC#N)c1 [1-butyl-3-(2-cyanoethyl)-1H-imidazol-3-ium dodecyl sulfate] | 1123.2 |
| CCCCCCCCCCn1cc[n+](CCC#N)c1.O=C([O-])c1cccc(S(=O)(=O)O)c1 [3-(2-cyanoethyl)-1-decylimidazolium 3-sulfobenzoate] | 1133.5 |

This collection of values is drawn from the NIST ThermoML archive (doi:10.1021/je400849a).
